# MEASURED ON: Neuropeptide S receptor (Homo sapiens) (UniProt Q6W5P4)
# Sequence (Q6W5P4 whole entry, looked up): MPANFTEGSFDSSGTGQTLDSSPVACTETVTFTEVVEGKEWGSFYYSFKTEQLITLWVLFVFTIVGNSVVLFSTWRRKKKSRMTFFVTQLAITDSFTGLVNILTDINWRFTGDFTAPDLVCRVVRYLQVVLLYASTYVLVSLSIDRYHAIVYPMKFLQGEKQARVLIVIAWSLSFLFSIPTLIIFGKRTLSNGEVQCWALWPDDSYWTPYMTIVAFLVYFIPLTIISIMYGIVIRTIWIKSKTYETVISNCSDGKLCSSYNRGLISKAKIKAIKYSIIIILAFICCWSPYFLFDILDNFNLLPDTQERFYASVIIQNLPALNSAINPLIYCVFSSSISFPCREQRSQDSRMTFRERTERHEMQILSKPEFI
# ASSAY NAME: qHTS for Antagonists of the Neuropeptide S Receptor: SAR in ERK
# ASSAY CONDITIONS: CHO-NPSR cells, NPS-induced pERK1/2 HTRF
The source made the active and inactive calls.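 How the source made its calls: active means neuropeptide S receptor blocker with IC50 at or below 10 µM; inconclusive means IC50 above 10 µM but below 20 µM; inactive means IC50 of 20 µM or more.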
Reported IC50 values are given for each entry in this list.

Example cases with answers are listed next.
[
  {
    "MOLECULE": "CCC(C)(CCN1CCOCC1)N(Cc1cc2ccccc2n(C)c1=O)C(=O)C1CCCCC1 (centres undefined)",
    "MEASURED ON": "Neuropeptide S receptor (Homo sapiens) (UniProt Q6W5P4)",
    "MEASURED": "9 nM (active)"
  },
  {
    "MOLECULE": "COc1ccc(C2c3c(ncn(CCN4CCOCC4)c3=N)Oc3ccc4ccccc4c32)cc1OC (centres undefined)",
    "MEASURED ON": "Neuropeptide S receptor (Homo sapiens) (UniProt Q6W5P4)",
    "MEASURED": "59.7 nM (active)"
  },
  {
    "MOLECULE": "O=C1OC(c2ccccc2)(c2ccccc2)N2CCN(C(=O)NCc3ccc(F)cc3)CC12 (centres undefined)",
    "MEASURED ON": "Neuropeptide S receptor (Homo sapiens) (UniProt Q6W5P4)",
    "MEASURED": "15.8 nM (active)"
  }
]

Attention now shifts to the item below.
Input: Could you share which IC50 value was measured for Cc1c(P(=S)(c2ccccc2)c2ccccc2)[n+]2ccccc2n1C/C=C/c1ccccc1 ?
Output: 9.3 nM (active)
